assay: Bioavailability (dose 8 mg/kg p.o.); type: ADME, organism-based, Canis lupus familiaris; settings: dog, in vivo, po
experimental readout: bioavailability (%)
Expressed in %, but write only the number.

Incoming: Sample Cc1cc(COc2ccc([C@]3(C)CCN([C@H](C)C(=O)NO)C3=O)cc2)c2ccccc2n1 (stereo in doubt) — what was its bioavailability?
Outgoing: 32

* * *

molecular target: Matrix metalloproteinase-9 (Homo sapiens)
Sequence (P14780 whole entry): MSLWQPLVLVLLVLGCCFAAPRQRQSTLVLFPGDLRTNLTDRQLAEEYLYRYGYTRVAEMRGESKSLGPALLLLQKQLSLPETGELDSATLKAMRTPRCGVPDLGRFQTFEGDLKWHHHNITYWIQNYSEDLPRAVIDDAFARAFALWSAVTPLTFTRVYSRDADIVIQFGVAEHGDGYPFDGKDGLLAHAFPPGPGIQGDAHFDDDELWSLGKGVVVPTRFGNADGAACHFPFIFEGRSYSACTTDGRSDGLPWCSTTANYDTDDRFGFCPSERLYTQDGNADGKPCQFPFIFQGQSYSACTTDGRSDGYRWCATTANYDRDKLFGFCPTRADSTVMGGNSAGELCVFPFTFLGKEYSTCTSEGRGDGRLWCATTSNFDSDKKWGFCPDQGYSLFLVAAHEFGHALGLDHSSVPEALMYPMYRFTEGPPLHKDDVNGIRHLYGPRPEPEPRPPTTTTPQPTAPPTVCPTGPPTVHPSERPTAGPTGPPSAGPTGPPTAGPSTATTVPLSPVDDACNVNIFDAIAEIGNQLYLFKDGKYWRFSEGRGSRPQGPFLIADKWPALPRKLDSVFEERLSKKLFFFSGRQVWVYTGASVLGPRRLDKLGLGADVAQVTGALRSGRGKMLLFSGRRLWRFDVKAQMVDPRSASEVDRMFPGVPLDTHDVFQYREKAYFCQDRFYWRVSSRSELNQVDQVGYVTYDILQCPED
pKi: −log10 of the molar value.
Lab note: compare pKi against 7. Equal or greater, write met. Smaller, write not met.

Incoming: Is the recorded value of pKi equal to or greater than 7 for this compound? Cc1cc(COc2ccc([C@]3(C)CCN([C@H](C)C(=O)NO)C3=O)cc2)c2ccccc2n1 (stereo in doubt)
Outgoing: not met

Incoming: Now try `C[C@H](C(=O)NO)N1CC[C@@](C)(c2ccc(OCc3cc(C(F)(F)F)cc(C(F)(F)F)c3)cc2)C1=O` .
Outgoing: not met

Incoming: Now try `C=CCOc1ccc([C@]2(C)CCN([C@H](C)C(=O)NO)C2=O)cc1` .
Outgoing: met

Incoming: Now try `COc1ccc([C@]2(C)CCN([C@H](C)C(=O)NO)C2=O)cc1` .
Outgoing: met

Incoming: Now try `C[C@H](C(=O)NO)N1CC[C@@](C)(c2ccc(OCc3ccc([N+](=O)[O-])cc3)cc2)C1=O` .
Outgoing: met

Incoming: Now try `C[C@H](C(=O)NO)N1CC[C@@](C)(c2ccc(Oc3ccccc3)cc2)C1=O` .
Outgoing: met

Incoming: Now try `CC(C)Cc1ccc([C@]2(C)CCN([C@H](C)C(=O)NO)C2=O)cc1` .
Outgoing: not met
